# System: CD2F1 mice, L1210 leukemia ip, survival T/C
# experiment-description: NCI In Vivo Anticancer Drug Screen. Data for tumor model L1210 Leukemia (intraperitoneal) in CD2F1 (CDF1) mice
# experimental-setup: endpoint: mean survival time; dose: 100.0 mg/kg/injection; schedule: Q04DX003 (ip); vehicle: Klucel (hydroxypropylcellulose) (HPC); higher = longer survival
Toxic doses and inconclusive results are not listed.
outcome-measure: T/C

compound	T/C
CC(C)(C)Nc1ccc([N+](=O)[O-])cc1Cl	91 % of control
O=C1OC(=O)c2ccc([N+](=O)[O-])c3cccc1c23	98 % of control
C(=N\Nc1nc2ccccc2o1)/c1ccncc1	103 % of control
CC1=C/C(=N\N=C2/C=C(C)CC(C)(C)C2)CC(C)(C)C1	93 % of control
Cn1c(Cl)nc2c(Cl)nc(Cl)nc21	104 % of control

Value lookup for T/C; key = CC12CCC(=O)C=C1CCC1C2CCC2(C)C(C(=O)Cn3c(=O)[nH]cc(F)c3=O)CCC12 (centres undefined)
91 % of control

Next record, please: CCCCCCCCCCCCCC[N+](C)(C)Cc1cc(=O)c(O)co1
109 % of control

###

T/C listing for selected compounds.
# Test system: CD2F1 mice, L1210 leukemia ip, survival T/C
# experiment-description: NCI In Vivo Anticancer Drug Screen. Data for tumor model L1210 Leukemia (intraperitoneal) in CD2F1 (CDF1) mice
# experimental-setup: endpoint: mean survival time; dose: 200.0 mg/kg/injection; schedule: Q01DX009 (ip); vehicle: saline with Tween-80; higher = longer survival
# Procedure: The antitumor activity of compounds was measured in mice bearing transplantable tumors. Survival or tumor size were measured and the results are expressed as the measurement made in the treated group (T) divided by the measurement made in the vehicle treated control group (C). The tumor model used in this assay is L1210 Leukemia (intraperitoneal) in CD2F1 (CDF1) mice
Toxic doses and inconclusive results are not listed.

Solved entries:
compound	T/C
COc1cc2ccc(/C(C)=N/OC(C)=O)cc2cc1OC	102 % of control
O=Cc1ccc(/C=C2\C=Cc3ccccc32)cc1	94 % of control
CCOc1ccc(CO)cc1	98 % of control
COC(=O)c1ccc(I)c([N+](=O)[O-])c1	102 % of control
COc1ccc(NC(=O)Nc2ccc(C)cc2C)cc1	88 % of control
CCOC(=O)C(C#N)N=Nc1ccccc1 (stereo unspecified)	95 % of control
N=c1nc(N)nc(N)n1-c1ccccc1	102 % of control
C#CC(C)(O)CCCCCC (stereo unspecified)	100 % of control
CC(=O)Nc1ccc(OCCOC(=O)Nc2ccc(Cl)cc2C)cc1	92 % of control
O=C1C2C(C(=O)N1c1ccc(F)c([N+](=O)[O-])c1)C1(Cl)C(Cl)=C(Cl)C2(Cl)C1(Cl)Cl (stereo unspecified)	111 % of control

Given the entry COc1ccc(-n2c(=S)[nH]c3ccc(C)cc3c2=O)cc1 , report its measured T/C.
100 % of control

What do you have for S=C1SCCN1Cc1ccccc1 ?
101 % of control

What do we get for O=C(CNC(=O)Nc1cccc([N+](=O)[O-])c1)N/N=C/c1cccc(O)c1 ?
95 % of control

Now try NC(=S)NNC(N)=S .
95 % of control

What about this compound? COC(OC)C1C2C3C=CC(C4C(=O)OC(=O)C34)C12 (stereo unspecified)
93 % of control

Follow-up entry: CC12CC1(C)C(=O)OC2=O (stereo unspecified)
96 % of control

Consider next the compound CC1=CC=CC2=NC(=O)CCN12 in the same way.
106 % of control

###

Below: a set of entries, each annotated with reported T/C.
# System: CD2F1 mice, L1210 leukemia ip, survival T/C
# experiment-description: NCI In Vivo Anticancer Drug Screen. Data for tumor model L1210 Leukemia (intraperitoneal) in CD2F1 (CDF1) mice
# experimental-setup: endpoint: mean survival time; dose: 50.0 mg/kg/injection; schedule: Q01DX009 (ip); vehicle: saline; higher = longer survival
Inconclusive results and toxic doses are left out.

Known results for compounds:
compound	T/C
CCCCCCCCCCCCNC=O	103 % of control
CCOC(=O)C1=C(C#N)C2(CCC(OCc3ccccc3)CC2)C(=O)O1 (stereo unspecified)	107 % of control
c1ccc2c[n+](C[n+]3ccc4ccccc4c3)ccc2c1	96 % of control
O=C1Cc2ccccc2O1	96 % of control
Fc1ccc(NC(=S)SCc2ccc(Cl)c(Cl)c2)cc1F	98 % of control

We next turn to a different compound, shown below.
Data request, read-out T/C, for Cc1cccc(NC(=O)Nc2ccc(Oc3ccccc3Cl)c(S(=O)(=O)O)c2)c1
101 % of control

###

# Tested on: CD2F1 mice, L1210 leukemia ip, survival T/C
# experiment-description: NCI In Vivo Anticancer Drug Screen. Data for tumor model L1210 Leukemia (intraperitoneal) in CD2F1 (CDF1) mice
# experimental-setup: endpoint: mean survival time; dose: 25.0 mg/kg/injection; schedule: Q04DX002 (ip); vehicle: saline with Tween-80; higher = longer survival
Toxic doses and inconclusive results are not listed.
List of T/C values.

Solved cases (3 shown):
compound	T/C
O=[N+]([O-])c1ccc(C[P+](c2ccccc2)(c2ccccc2)c2ccccc2)cc1	94 % of control
CCOc1ccc(OCC)c(NC(=O)Nc2ccccc2Cl)c1	94 % of control
CC(C)=[C-]N(C)C.[C-]#[O+].[C-]#[O+].[C-]#[O+].[C-]#[O+].[C-]#[O+].[Mn]	103 % of control

GET /values?readout=T/C&item= NC(CSS(=O)(=O)O)=NCCCCN=C(N)CSS(=O)(=O)O
95 % of control

Now give it for COCC(=O)C(C(C)=O)C(c1ccccn1)C(C(C)=O)C(=O)COC (stereo not given) too.
96 % of control

###

# Test system: CD2F1 mice, L1210 leukemia ip, survival T/C
# experiment-description: NCI In Vivo Anticancer Drug Screen. Data for tumor model L1210 Leukemia (intraperitoneal) in CD2F1 (CDF1) mice
# experimental-setup: endpoint: mean survival time; dose: 200.0 mg/kg/injection; schedule: Q01DX001 (ip); vehicle: Klucel (hydroxypropylcellulose) (HPC); higher = longer survival
Toxic doses and inconclusive results are not listed.
outcome-measure: T/C

Look over these answered cases.
compound	result
Cc1cccc(C)c1Nc1n[nH]c(=S)s1	101 % of control
CCOC(=O)C1(C(=O)OCC)C(C)CC2Nc3cc4c(cc3C(=O)N21)OCO4 (stereo not drawn)	96 % of control

// next item, T/C requested
Field request: T/C | item: O=c1cc(-c2ccc(S(=O)(=O)F)cc2)[nH]c2ccc([N+](=O)[O-])cc12
101 % of control

###

# Tested on: CD2F1 mice, L1210 leukemia ip, survival T/C
# experiment-description: NCI In Vivo Anticancer Drug Screen. Data for tumor model L1210 Leukemia (intraperitoneal) in CD2F1 (CDF1) mice
# experimental-setup: endpoint: mean survival time; dose: 100.0 mg/kg/injection; schedule: Q04DX003 (ip); vehicle: saline with Tween-80; higher = longer survival
Toxic doses and inconclusive results are not listed.
outcome-measure: T/C

compound	T/C
Cc1cc(C)cc(OC(=O)/C=C/C(=O)Oc2cc(C)cc(C)c2)c1	100 % of control
O=C(O)Cc1cc2c(cc1I)OCO2	100 % of control
CCCCCOC(=O)Nc1cccc(O)c1	95 % of control
C=Cc1ccc(C(N)=O)cc1	101 % of control
CCn1c(-c2cccc(N)c2)cc(=O)n1-c1ccccc1	98 % of control
Clc1c(Cl)c(Cl)c(C(c2c(Cl)c(Cl)c(Cl)c(Cl)c2Cl)c2c(Cl)c(Cl)c(Cl)c(Cl)c2Cl)c(Cl)c1Cl	98 % of control

Data request, read-out T/C, for CCCCCC(=O)C(C)CC (stereo unspecified)
96 % of control

Next compound up: O=C(O)c1ccccc1C(=O)OCC(c1ccccc1)c1ccccc1
97 % of control

Next compound up: Cc1cc(Br)ccc1N
97 % of control

Field entry: CNc1c(Cl)c(Cl)c(Br)c(Cl)c1Cl
100 % of control

Consider next the compound CCCCCCCCCCCCCC[N+](C)(C)Cc1cc(=O)c(O)co1 in the same way.
87 % of control

Now give it for CC(C)(C)CC(C)(C)c1ccc(OCCOc2ccccc2NC(=O)CC(=O)c2cccc([N+](=O)[O-])c2)cc1 too.
97 % of control

Repeat for the following compound: O=[N+]([O-])c1ccc(/C=N\N=C\c2ccco2)cc1
88 % of control

Also check CCOc1ccc(/C=C(/C#N)C(N)=O)cc1
94 % of control

What about this compound? O=C(O)c1c(Cl)c(Cl)c(C(=O)O)c(Cl)c1Cl
96 % of control

Try this compound next: COC(=O)C(=O)Cc1cc(OC)cc(=O)o1
100 % of control
